Items are presented alongside their recorded TGI.
Test system: SN12C renal
protocol_details: NCI tumour cell line growth inhibition, 48 h

Known TGI results, listed for orientation:
• COc1ccccc1N/C(=C\C(=O)C(=O)NC12CC3CC(CC(C3)C1)C2)c1ccccc1 = > 10 µM
• Nc1cc(CO)cc(Nc2nc3ccc(Cl)cc3c3[nH]c4ccccc4c23)c1 = 12.9 µM
• Nc1nc2cc3nc(N)c(N)nc3cc2nc1N = > 100 µM
• Cc1nn(CN2CCN(C)CC2)c(=S)n1/N=C/c1cccc2ccccc12 = 39.2 µM
• COC(=O)CC(C(C(=O)OC)C(=O)OC)N1C(=O)OCC1c1ccccc1 (stereo unspecified) = > 100 µM

Next item in the queue.
Report TGI for CCOc1cccc(/C=N/NC(=O)c2ccccc2Nc2ccnc(C(F)(F)F)c2)c1O please. > 94.9 µM

The measurements presented in this section are drawn from PubChem BioAssay (NCI).
